Hey, just so you know, these numbers are from PubChem BioAssay AID1963869.

Listed below: viability, T/C values for each entry.
# System: KRAS patient-derived spheroids with HUVEC/MSC, viability;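 further: spheroids exposed to agents for 7 days; 100% = DMSO vehicle control viability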
# measurementProtocol: Anticancer human tumor 323965-272-R-J2-PDC patient-derived pancreatic carcinoma cell line growth inhibition [KRAS2]
# experimentalParameters: second compound 1 µM; first compound 3.16 µM; hits give low values
Quick reminder: number only, in %, skip the unit.

Some solved entries appear below for comparison.
Give the measured viability, T/C of O=C(c1cc(Cc2n[nH]c(=O)c3ccccc23)ccc1F)N1CCN(C(=O)C2CC2)CC1 + C=CC(=O)N1CCN(c2nc(OCC3CCCN3C)nc3c2CCN(c2cccc4cccc(C)c24)C3)CC1CC#N .
50.8

// same read-out, input: COC(=O)c1ccc2c(C(=Nc3ccc(N(C)C(=O)CN4CCN(C)CC4)cc3)c3ccccc3)c(O)[nH]c2c1 + CNCc1ccccc1-c1csc(C(C)Nc2nc(C)nc3cc(OC)c(OC)cc23)c1
93.7

// same read-out, input: Cn1nccc1Nc1nccc(-c2cc3c(s2)C(C)(C)N(CCN2CCOCC2)C3=O)n1 + COc1cc2nc(C)nc(NC(C)c3cc(N)cc(C(F)(F)F)c3)c2cc1OC1CCOC1
30

// same read-out, input: COC(=O)c1ccc2c(C(=Nc3ccc(N(C)C(=O)CN4CCN(C)CC4)cc3)c3ccccc3)c(O)[nH]c2c1 + CC1OCC2(CCN(c3cnc(Sc4ccnc(N)c4Cl)c(N)n3)CC2)C1N
43.9

Further cases:
Give the measured viability, T/C of CC1(C)CCC(CN2CCN(c3ccc(C(=O)NS(=O)(=O)c4ccc(NCC5CCOCC5)c([N+](=O)[O-])c4)c(Oc4cnc5[nH]ccc5c4)c3)CC2)=C(c2ccc(Cl)cc2)C1 + C=CC(=O)N1CCN(c2nc(=O)n(-c3c(C)ccnc3C(C)C)c3nc(-c4c(O)cccc4F)c(F)cc23)C(C)C1 .
12
